conditions: in 1,2-dichloroethane, 338.25 K
PARAMETER MEASURED: solubility (mole fraction)
Response field accepts a number only; no unit should be typed.

(Q) Quote solubility (mole fraction) reported for "c1ccc2c(c1)OP1(=NP3(=NP4(=N1)Oc1ccccc1O4)Oc1ccccc1O3)O2" please.
(A) 0.00582

====

conditions: in ethanol, 328.15 K
PARAMETER MEASURED: solubility (mole fraction)
Response field accepts a number only; no unit should be typed.

(Q) Quote solubility (mole fraction) reported for "c1ccc2c(c1)OP1(=NP3(=NP4(=N1)Oc1ccccc1O4)Oc1ccccc1O3)O2" please.
(A) 0.000451

====

settings: in ethanol, 303.25 K
PARAMETER MEASURED: solubility (mole fraction)
Response field accepts a number only; no unit should be typed.

(Q) Quote solubility (mole fraction) reported for "c1ccc2c(c1)OP1(=NP3(=NP4(=N1)Oc1ccccc1O4)Oc1ccccc1O3)O2" please.
(A) 0.000153
